Values were extracted from paper PMC9026280.

Biological target: complex I from B. taurus (bovine complex I) (Bos taurus, UniProt P03887+P17694+P25708+P42026)
Construct: AOX or GlpD added; with NADH dehydrogenase [ubiquinone] flavoprotein 2, mitochondrial; NADH-ubiquinone oxidoreductase 75 kDa subunit, mitochondrial; NADH dehydrogenase [ubiquinone] iron-sulfur protein 3, mitochondrial; NADH dehydrogenase [ubiquinone] iron-sulfur protein 8, mitochondrial; NADH-ubiquinone oxidoreductase chain 2; NADH-ubiquinone oxidoreductase chain 3; NADH-ubiquinone oxidoreductase chain 4; NADH-ubiquinone oxidoreductase chain 4L; NADH-ubiquinone oxidoreductase chain 5; NADH-ubiquinone oxidoreductase chain 6
Sequence (P17694 34-463): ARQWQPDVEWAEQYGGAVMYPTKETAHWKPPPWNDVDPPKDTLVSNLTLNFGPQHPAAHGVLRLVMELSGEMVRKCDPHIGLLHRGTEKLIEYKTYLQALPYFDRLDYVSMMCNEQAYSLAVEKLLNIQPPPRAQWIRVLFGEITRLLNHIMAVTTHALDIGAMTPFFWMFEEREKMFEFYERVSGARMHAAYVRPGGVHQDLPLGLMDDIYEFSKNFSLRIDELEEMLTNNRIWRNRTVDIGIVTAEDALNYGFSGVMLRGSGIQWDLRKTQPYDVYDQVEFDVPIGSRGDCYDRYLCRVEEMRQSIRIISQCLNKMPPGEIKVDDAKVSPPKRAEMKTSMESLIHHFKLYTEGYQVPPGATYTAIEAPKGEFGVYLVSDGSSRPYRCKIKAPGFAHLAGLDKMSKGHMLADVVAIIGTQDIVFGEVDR
Sequence (P42026 38-216): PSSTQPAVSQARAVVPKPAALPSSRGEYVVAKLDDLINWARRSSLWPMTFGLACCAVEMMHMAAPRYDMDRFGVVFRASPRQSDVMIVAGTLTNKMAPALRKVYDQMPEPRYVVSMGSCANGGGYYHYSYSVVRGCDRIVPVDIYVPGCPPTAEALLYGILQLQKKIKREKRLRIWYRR
Sequence (P03887 whole entry): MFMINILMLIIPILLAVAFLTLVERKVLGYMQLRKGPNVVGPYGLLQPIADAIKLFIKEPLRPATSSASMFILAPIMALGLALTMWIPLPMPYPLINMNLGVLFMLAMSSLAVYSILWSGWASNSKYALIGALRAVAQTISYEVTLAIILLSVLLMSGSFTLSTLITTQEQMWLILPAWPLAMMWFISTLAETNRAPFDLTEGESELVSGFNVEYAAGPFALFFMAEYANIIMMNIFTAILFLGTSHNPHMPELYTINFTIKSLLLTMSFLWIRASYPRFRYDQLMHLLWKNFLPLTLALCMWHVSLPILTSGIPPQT
Sequence (P25708 21-464): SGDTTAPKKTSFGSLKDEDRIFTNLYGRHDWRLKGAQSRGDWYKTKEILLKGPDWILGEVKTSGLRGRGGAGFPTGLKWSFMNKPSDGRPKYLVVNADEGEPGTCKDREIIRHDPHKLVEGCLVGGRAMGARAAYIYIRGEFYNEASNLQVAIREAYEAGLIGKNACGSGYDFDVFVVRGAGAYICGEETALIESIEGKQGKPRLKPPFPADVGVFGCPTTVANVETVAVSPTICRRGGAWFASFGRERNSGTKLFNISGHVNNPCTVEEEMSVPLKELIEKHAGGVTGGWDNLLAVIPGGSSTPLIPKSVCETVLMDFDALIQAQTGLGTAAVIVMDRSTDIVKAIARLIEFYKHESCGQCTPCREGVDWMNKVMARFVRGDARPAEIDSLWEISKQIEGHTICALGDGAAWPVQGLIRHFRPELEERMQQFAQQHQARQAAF
Experiment: NADH:O2 oxidoreduction (FET) in CI proteoliposomes with AOX, spectrophotometric
value.kind: IC50 (nM)
API: value field is a number in nM; no unit string.

Query (compound): C/C=C(\C)[C@H](O)[C@H](C)/C=C(C)/C=C/C/C(C)=C/Cc1nc(OC)c(OC)c(O)c1C ; field requested: IC50
7.8
